Here, each record is paired with measured IC50 data.
target: HER-2 (Homo sapiens, UniProt P04626); construct: His6 with thrombin site (N); assay: HER-2 Kinase Assay; settings: value in parentheses
Sequence (P04626 679-1255): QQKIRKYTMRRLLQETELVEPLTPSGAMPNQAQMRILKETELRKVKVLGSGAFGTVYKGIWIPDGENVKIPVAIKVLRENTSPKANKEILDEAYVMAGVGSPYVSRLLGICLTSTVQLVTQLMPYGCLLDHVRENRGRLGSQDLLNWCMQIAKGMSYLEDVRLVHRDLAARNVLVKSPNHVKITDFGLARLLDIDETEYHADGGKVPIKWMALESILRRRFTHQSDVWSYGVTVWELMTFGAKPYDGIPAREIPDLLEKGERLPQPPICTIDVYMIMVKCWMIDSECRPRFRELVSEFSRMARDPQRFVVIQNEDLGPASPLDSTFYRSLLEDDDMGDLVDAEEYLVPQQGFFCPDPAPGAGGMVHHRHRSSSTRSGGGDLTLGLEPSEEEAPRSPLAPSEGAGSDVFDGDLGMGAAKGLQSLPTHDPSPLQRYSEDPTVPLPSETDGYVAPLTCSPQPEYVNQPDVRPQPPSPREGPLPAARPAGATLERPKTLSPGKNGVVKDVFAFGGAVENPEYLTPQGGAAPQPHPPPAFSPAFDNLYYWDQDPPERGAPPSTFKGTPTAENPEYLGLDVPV
Property measured: IC50 (µM)

{"columns": ["Compound", "System", "Property measured", "Readout units", "Modifier sign", "Test value"],
 "data": [
  ["O=C(Nc1ccccc1)c1sc2ncnc3c2c1NC(=O)N3c1cccc(Br)c1 [Cpd 130]", "HER-2 (Homo sapiens, UniProt P04626)", "IC50", "µM", ">", 100],
  ["O=C(Nc1ccc(CN2CCOCC2)cc1)c1sc2ncnc3c2c1NC(=O)N3c1ccc2c(cnn2Cc2cccc(F)c2)c1 [Cpd 175]", "HER-2 (Homo sapiens, UniProt P04626)", "IC50", "µM", "=", 0.515],
  ["O=C(Nc1ccc(CN2CCOCC2)cc1)c1sc2ncnc3c2c1NC(=O)N3c1ccc(OCc2ccccn2)c(Cl)c1 [Cpd 52]", "HER-2 (Homo sapiens, UniProt P04626)", "IC50", "µM", "=", 0.246],
  ["O=C(Nc1ccc(CN2CCOCC2)cc1)c1sc2ncnc3c2c1NC(=O)N3c1ccc(OCc2ccccn2)c(Br)c1 [Cpd 180]", "HER-2 (Homo sapiens, UniProt P04626)", "IC50", "µM", "=", 0.112]
]}

The reported measurements were obtained from patent US7579356B2.
